Structures can show the parent of a compound that is named as a salt.
Read-out record for human phosphodiesterase 5 (PDE 5) (Homo sapiens, UniProt O76074): IC50
Write the number in nM without appending the unit.

Determine reported IC50 for `Cc1nc2c(OCc3c(F)ccc(F)c3F)cccn2c1-c1nc2c(c(N3CCC(CC(=O)O)CC3)n1)C(C)(C)C(=O)N2` ; test system: human phosphodiesterase 5 (PDE 5) (Homo sapiens, UniProt O76074).
36

Please look at `Cc1nc2c(OCc3c(F)ccc(F)c3F)cccn2c1-c1nc(C#CC2CC2)c2c(n1)NC(=O)C2(C)C` and tell me its recorded IC50 on human phosphodiesterase 5 (PDE 5) (Homo sapiens, UniProt O76074).
430

Quote human phosphodiesterase 5 (PDE 5) (Homo sapiens, UniProt O76074) IC50 for entry Cc1nc2c(OCc3c(F)ccc(F)c3F)cccn2c1-c1nc2c(c(C(=O)NCC(C)(C)N)n1)C(C)(C)C(=O)N2 [Example 58, trifluoroacetate] .
5.2

Report the value of IC50 obtained on human phosphodiesterase 5 (PDE 5) (Homo sapiens, UniProt O76074) for `Cc1nc2c(OCc3c(F)cccc3F)cccn2c1-c1nc2c(c(C(=O)NC3CC3)n1)C(C)(C)C(=O)N2` .
4
